Data origin: patent US11999699B2

Target: human NaV1.8 (Homo sapiens)
Construct: The following NaV1.8 recombinant cell line was used for recordings: HEK-NaV1.8 (NM 006514.1)
Sequence (Q9Y5Y9 whole entry): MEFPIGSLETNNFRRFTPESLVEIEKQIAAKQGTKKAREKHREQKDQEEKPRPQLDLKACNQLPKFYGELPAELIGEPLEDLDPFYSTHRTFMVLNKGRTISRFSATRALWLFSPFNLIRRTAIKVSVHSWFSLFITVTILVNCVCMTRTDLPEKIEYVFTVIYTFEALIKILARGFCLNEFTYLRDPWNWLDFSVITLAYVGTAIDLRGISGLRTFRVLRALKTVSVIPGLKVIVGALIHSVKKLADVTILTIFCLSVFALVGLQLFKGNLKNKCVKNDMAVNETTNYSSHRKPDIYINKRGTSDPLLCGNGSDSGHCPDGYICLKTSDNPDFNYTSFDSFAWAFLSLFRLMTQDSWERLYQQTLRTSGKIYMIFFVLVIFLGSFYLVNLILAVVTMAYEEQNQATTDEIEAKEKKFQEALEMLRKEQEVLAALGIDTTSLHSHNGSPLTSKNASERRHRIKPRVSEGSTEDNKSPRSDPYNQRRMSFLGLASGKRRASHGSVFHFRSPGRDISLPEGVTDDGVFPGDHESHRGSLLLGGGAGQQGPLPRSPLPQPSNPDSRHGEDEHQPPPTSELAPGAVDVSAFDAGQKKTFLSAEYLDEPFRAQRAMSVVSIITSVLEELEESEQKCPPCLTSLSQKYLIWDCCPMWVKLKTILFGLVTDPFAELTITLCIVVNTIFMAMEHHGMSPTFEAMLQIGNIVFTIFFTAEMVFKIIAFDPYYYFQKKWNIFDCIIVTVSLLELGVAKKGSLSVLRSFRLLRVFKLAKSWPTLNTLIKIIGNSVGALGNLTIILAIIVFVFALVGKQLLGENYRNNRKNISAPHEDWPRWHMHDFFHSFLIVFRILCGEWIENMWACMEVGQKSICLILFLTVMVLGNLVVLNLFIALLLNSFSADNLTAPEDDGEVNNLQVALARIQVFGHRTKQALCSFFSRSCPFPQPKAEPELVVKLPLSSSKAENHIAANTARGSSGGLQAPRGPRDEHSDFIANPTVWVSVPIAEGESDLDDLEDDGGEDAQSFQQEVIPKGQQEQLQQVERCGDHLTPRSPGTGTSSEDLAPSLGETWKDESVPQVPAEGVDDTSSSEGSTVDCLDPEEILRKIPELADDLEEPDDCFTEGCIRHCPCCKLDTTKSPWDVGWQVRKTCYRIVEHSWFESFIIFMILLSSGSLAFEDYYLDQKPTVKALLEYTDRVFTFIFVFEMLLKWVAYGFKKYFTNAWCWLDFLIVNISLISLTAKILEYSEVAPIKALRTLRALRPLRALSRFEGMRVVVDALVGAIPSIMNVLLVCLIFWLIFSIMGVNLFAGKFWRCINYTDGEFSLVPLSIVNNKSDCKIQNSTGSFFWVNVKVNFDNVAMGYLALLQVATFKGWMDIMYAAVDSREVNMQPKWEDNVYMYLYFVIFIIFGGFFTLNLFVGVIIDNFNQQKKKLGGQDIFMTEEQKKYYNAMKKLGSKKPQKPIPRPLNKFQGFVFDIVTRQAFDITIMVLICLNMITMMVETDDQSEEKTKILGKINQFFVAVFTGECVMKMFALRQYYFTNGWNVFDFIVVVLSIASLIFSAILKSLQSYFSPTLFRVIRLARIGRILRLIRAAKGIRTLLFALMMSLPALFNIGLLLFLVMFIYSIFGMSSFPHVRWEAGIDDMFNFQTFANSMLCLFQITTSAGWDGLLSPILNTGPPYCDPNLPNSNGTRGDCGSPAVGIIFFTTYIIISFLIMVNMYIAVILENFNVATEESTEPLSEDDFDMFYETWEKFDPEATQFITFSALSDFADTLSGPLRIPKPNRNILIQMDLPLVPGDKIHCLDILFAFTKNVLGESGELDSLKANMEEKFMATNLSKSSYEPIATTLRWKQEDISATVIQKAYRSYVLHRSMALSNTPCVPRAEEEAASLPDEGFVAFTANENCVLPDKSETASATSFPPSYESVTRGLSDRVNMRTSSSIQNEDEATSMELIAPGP
Sequence (Q9NY72 23-215 partner): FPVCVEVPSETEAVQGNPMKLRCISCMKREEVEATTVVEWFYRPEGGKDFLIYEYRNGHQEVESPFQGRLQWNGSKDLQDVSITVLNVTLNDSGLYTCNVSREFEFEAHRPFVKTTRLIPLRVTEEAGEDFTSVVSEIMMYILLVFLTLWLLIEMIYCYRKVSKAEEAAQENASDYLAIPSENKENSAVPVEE
Test: Electrophysiology: automated whole-cell voltage-clamp (patch clamp, Qube384) recordings of sodium currents in HEK-NaV1.8 cells
Details: potency data either taken from inactivated or resting state, read-out: Potency category (human NaV1.8 IC50)
Measure Name: IC50

Answered cases to consult:
[
  {
    "Molecule": "CS(=O)(=O)c1cc(NC(=O)c2c(C(F)F)c(C3CC3)nn2CC2CCC(F)(F)C2)ccn1 (stereo not drawn)",
    "Measure Name": "IC50",
    "Result": "≤ 100 nM"
  },
  {
    "Molecule": "Cc1nn(CC2CCC(F)(F)C2)c(C(=O)Nc2cccc(S(N)(=O)=O)c2)c1OC(F)(F)F (stereo not drawn)",
    "Measure Name": "IC50",
    "Result": "100 to 1000 nM"
  }
]

Query the reported IC50 for human NaV1.8 (Homo sapiens); item: CC1CC(Cn2nc(C3CC3)c(C(F)(F)F)c2C(=O)Nc2ccnc(C(N)=O)c2)CCO1 (stereo not drawn)
≤ 100 nM

Give the reported IC50 for CS(=O)(=O)c1cc(NC(=O)c2c(C(F)(F)F)c(C3CC3)nn2C[C@@H]2CCO[C@@H]2C(F)(F)F)ccn1 (single isomer, unassigned) [SC-150b] (system: human NaV1.8 (Homo sapiens)).
≤ 100 nM

Kindly state the measured IC50 obtained for CC(F)(F)c1nn(CC2CC(F)(F)C2)c(C(=O)Nc2ccnc(C(N)=O)c2)c1C(F)(F)F with human NaV1.8 (Homo sapiens).
≤ 100 nM

// map O=C(Nc1ccnc(O)c1)c1c(C(F)(F)F)cnn1CC1CCCCCC1 to recorded IC50 (system: human NaV1.8 (Homo sapiens))
100 to 1000 nM

Missing value: IC50, human NaV1.8 (Homo sapiens), entry Cc1c(C(C)(F)F)nn(CC2CC(F)(F)C2)c1C(=O)Nc1cccc(S(N)(=O)=O)c1 . Fill in?
≤ 100 nM

Form field - read-out: IC50; system: human NaV1.8 (Homo sapiens); submitted item: CC(C1CCCCC1)n1ncc(C(F)(F)F)c1C(=O)Nc1cccc(S(C)(=O)=O)c1 (stereo not drawn)
100 to 1000 nM

Query the reported IC50 for human NaV1.8 (Homo sapiens); item: CS(=O)(=O)c1cc(NC(=O)c2c(OC(F)F)c(C3CC3)nn2CC2CCOCC2)ccn1
1000 to 10000 nM
